# PROTOCOL NOTES: Glutathione peroxidase activity (NADPH-coupled, GSH/glutathione disulphide reductase)
# Assay type: biochemical
# DETAILS: substrate H2O2; compound 20 μM; pH = 7.3; 37° C.; [GSH] = 2 mM
READOUT NAME: Glutathione peroxidase activity, H2O2

Consider the following illustrative entries.
# COMPOUND, RESULT
records = [
    ("CC1(C)CN[Se](=O)c2sccc21 (stereo not shown)", "37.1 nmoles of hydroperoxide reduced/min"),
    ("CC1(C)CN[Se](=O)c2ccsc21 (stereo not shown)", "35.7 nmoles of hydroperoxide reduced/min"),
    ("CC1(C)CN[Se]c2sccc21", "39.8 nmoles of hydroperoxide reduced/min"),
]

For the next question, use this compound.
I would be grateful if you could share the reported Glutathione peroxidase activity, H2O2 for `CC1(C)CN[Se]c2ccsc21` . 34.9 nmoles of hydroperoxide reduced/min
